# TEST: Determination of solubility in toluene
# Format: physicochemical
# MEASUREMENT_PARAMETERS: stirred at 60° C. for 1 h, cooled to room temperature, yes = clear solution lacking any large particles
QUANTITY_NAME: Solubility in toluene > 2 mg/ml

N#Cc1ccc2c(c1)C1(c3cc(C#N)ccc3-2)c2ccccc2N(c2ccccc2)c2ccccc21 [reference compound] ... no
N#Cc1c(-n2c3ccccc3c3ccccc32)c(C#N)c(-n2c3ccccc3c3ccccc32)c(-n2c3ccccc3c3ccccc32)c1-n1c2ccccc2c2ccccc21 [reference compound] ... yes
N#CC(C#N)=C1c2ccccc2C2(c3ccccc31)c1ccccc1N(c1c(-c3ccccc3)cc(-c3ccccc3)cc1-c1ccccc1)c1ccccc12 ... yes

* * *

# TEST: Determination of solubility in toluene
# Type: physicochemical
# MEASUREMENT_PARAMETERS: stirred at 60° C. for 1 h, cooled to room temperature, yes = clear solution lacking any large particles
QUANTITY_NAME: Solubility in toluene > 10 mg/ml

N#CC(C#N)=C1c2ccccc2C2(c3ccccc31)c1ccccc1N(c1c(-c3ccccc3)cc(-c3ccccc3)cc1-c1ccccc1)c1ccccc12 [Compound 9e] ... no
CCCCCCc1cc(CCCCCC)cc(N2c3ccccc3C3(c4ccccc4C(=C(C#N)C#N)c4ccccc43)c3ccccc32)c1 [Compound 9a] ... yes
N#CC(C#N)=C1c2ccccc2C2(c3ccccc31)c1ccccc1N(c1ccccc1)c1ccccc12 [reference compound] ... no
N#Cc1ccc2c(c1)C1(c3cc(C#N)ccc3-2)c2ccccc2N(c2cc(-c3ccccc3)cc(-c3ccccc3)c2)c2ccccc21 [Compound 6a] ... no
CCCCCCc1ccc2c(c1)c1cc(CCCCCC)ccc1n2-c1c(C#N)c(-n2c3ccc(CCCCCC)cc3c3cc(CCCCCC)ccc32)c(C#N)c(-n2c3ccc(CCCCCC)cc3c3cc(CCCCCC)ccc32)c1C#N [Compound 19d] ... yes
N#Cc1c(-n2c3ccccc3c3ccccc32)c(C#N)c(-n2c3ccccc3c3ccccc32)c(-n2c3ccccc3c3ccccc32)c1-n1c2ccccc2c2ccccc21 [reference compound] ... no
N#Cc1ccc2c(c1)C1(c3cc(C#N)ccc3-2)c2ccccc2N(c2ccccc2)c2ccccc21 [reference compound] ... no

* * *

# TEST: Determination of solubility in toluene
# Assay type: physicochemical
# MEASUREMENT_PARAMETERS: stirred at 60° C. for 1 h, cooled to room temperature, yes = clear solution lacking any large particles
QUANTITY_NAME: Solubility in toluene > 5 mg/ml

CCCCCCc1cc(CCCCCC)cc(N2c3ccccc3C3(c4ccccc4C(=C(C#N)C#N)c4ccccc43)c3ccccc32)c1 ... yes
N#Cc1ccc2c(c1)C1(c3cc(C#N)ccc3-2)c2ccccc2N(c2cc(-c3ccccc3)cc(-c3ccccc3)c2)c2ccccc21 ... yes
N#Cc1ccc2c(c1)C1(c3cc(C#N)ccc3-2)c2ccccc2N(c2ccccc2)c2ccccc21 [reference compound] ... no
CCCCCCc1ccc2c(c1)c1cc(CCCCCC)ccc1n2-c1c(C#N)c(-n2c3ccc(CCCCCC)cc3c3cc(CCCCCC)ccc32)c(C#N)c(-n2c3ccc(CCCCCC)cc3c3cc(CCCCCC)ccc32)c1C#N [Compound 19d] ... yes
N#CC(C#N)=C1c2ccccc2C2(c3ccccc31)c1ccccc1N(c1ccccc1)c1ccccc12 [reference compound] ... no
N#CC(C#N)=C1c2ccccc2C2(c3ccccc31)c1ccccc1N(c1c(-c3ccccc3)cc(-c3ccccc3)cc1-c1ccccc1)c1ccccc12 ... yes
N#Cc1c(-n2c3ccccc3c3ccccc32)c(C#N)c(-n2c3ccccc3c3ccccc32)c(-n2c3ccccc3c3ccccc32)c1-n1c2ccccc2c2ccccc21 [reference compound] ... no

# credit: patent US10683453B2
